meta.source: the supplement of paper PMC11061612

- Test system: BFTC-905 (Bladder Carcinoma)
- Assay Notes: combination Emax (second highest fraction inhibited in the dose matrix, 72 h); higher = more inhibition; extreme values may be limits of the assay
Parameter: combination Emax. Scope: all listed entries.

Examples with answers:
>>> result("Cc1cc2ncnn2cc1Nc1ncc2c(n1)n(C1CCOCC1)c(=O)n2C [AZD7648] + C=CCn1c(=O)c2cnc(Nc3ccc(N4CCN(C)CC4)cc3)nc2n1-c1cccc(C(C)(C)O)n1 [AZD1775] (first compound max 10 µM, partner max 1 µM)")
0.56
>>> result("CC1(C)CCC(CN2CCN(c3ccc(C(=O)NS(=O)(=O)c4ccc(NCC5CCOCC5)c([N+](=O)[O-])c4)c(Oc4cnc5[nH]ccc5c4)c3)CC2)=C(c2ccc(Cl)cc2)C1 [Venetoclax] + CN(C)CCCOc1ccc(-c2ccc3ncc4c(c3c2)n(C2CCOCC2)c(=O)n4C)cn1 [AZD0156] (first compound max 1 µM, 7x7, partner max 1 µM)")
0.588
>>> result("Cc1cc2ncnn2cc1Nc1ncc2c(n1)n(C1CCOCC1)c(=O)n2C [AZD7648] + C[C@@H]1COCCN1C2=NC(=NC(=C2)C3(CC3)[S@](=N)(=O)C)C4=C5C=CNC5=NC=C4 [AZD6738] (first compound max 10 µM, 7x7, partner max 10 µM)")
0.804
>>> result("O=C(c1cc(Cc2n[nH]c(=O)c3ccccc23)ccc1F)N1CCN(C(=O)C2CC2)CC1 [Olaparib] + COc1nnc2ccc(N3CCC(c4ccc(OCCN5CCN(C)C(=O)[C@H]5C)cc4)CC3)nn12 [AZD5153] (first compound max 10 µM, 7x7, partner max 1 µM)")
0.6
>>> result("Cc1c2c(nn1C)CSCc1cc(n(C)n1)CSc1cc(c3ccccc3c1)OCCCc1c(C(=O)O)n(C)c3c-2c(Cl)ccc13 [AZD5991] + C[C@@H]1COCCN1C2=NC(=NC(=C2)C3(CC3)[S@](=N)(=O)C)C4=C5C=CNC5=NC=C4 [AZD6738] (first compound max 1 µM, 7x7, partner max 10 µM)")
0.862

Measured combination Emax (BFTC-905 (Bladder Carcinoma)), entry Cc1c2c(nn1C)CSCc1cc(n(C)n1)CSc1cc(c3ccccc3c1)OCCCc1c(C(=O)O)n(C)c3c-2c(Cl)ccc13 [AZD5991] + CC(=O)O[C@H]1C(=O)[C@@]2(C)[C@H]([C@H](OC(=O)c3ccccc3)[C@]3(O)C[C@H](OC(=O)[C@H](O)[C@@H](NC(=O)c4ccccc4)c4ccccc4)C(C)=C1C3(C)C)[C@]1(OC(C)=O)CO[C@@H]1C[C@@H]2O [Paclitaxel] (first compound max 1 µM, 7x7, partner max 3 µM) : 0.975

Measured combination Emax (BFTC-905 (Bladder Carcinoma)), entry NC1(C(=O)N[C@@H](CCO)c2ccc(Cl)cc2)CCN(c2ncnc3[nH]ccc23)CC1 [Capivasertib] + CC(=O)c1c(C)c2cnc(Nc3ccc(N4CCNCC4)cn3)nc2n(C2CCCC2)c1=O [Palbociclib] (first compound max 10 µM, 7x7, partner max 10 µM) : 0.397
